Tested on: Staph aureus 2811
Experiment: MIC, microtiter broth dilution (CLSI M7-A7), Assay 1, Table 12 column D, no serum
Type: cell-based, Staphylococcus aureus
Conditions: Staph aureus 2811, Assay 1, no serum
observation_type: MIC, column D (µg/mL)
Value expressed in µg/mL; do not type the unit.

Below are worked cases with known answers.
COc1ccc2nccc(C(O)CC[C@@H]3CCN(C4CC5CCCCCC54)C[C@@H]3C(=O)O)c2c1 (stereo partly shown) [Example 53] :: 32
O=C(O)[C@H]1CN(C2CC(c3ccccc3)C2)CC[C@H]1CCC(O)c1ccnc2ccc(OC(F)F)cc12 (stereo partly shown) [Example 143] :: 0.5

// next item, MIC, column D requested
For Staph aureus 2811, provide MIC, column D of COc1ccc2ncc(Cl)c(C(O)CC[C@@H]3CCN(C4CC(c5cc(F)ccc5F)C4)C[C@@H]3C(=O)O)c2c1 (stereo partly shown) [Example 203] please.
0.125

---

MIC values by entry
Test system: Staph aureus 1146
Assay: MIC, microtiter broth dilution (CLSI M7-A7), Assay 1, Table 12 column B, no serum
Format: cell-based, Staphylococcus aureus
Details: Staphylococcus aureus, 1146, Staph aureus 1146, Assay 1, no serum
Value expressed in µg/mL; do not type the unit.

Below are worked cases with known answers.
COC(=O)[C@H]1CN(C2CC(c3cc(C)no3)C2)CC[C@H]1CCC(O)c1ccnc2ccc(OC)cc12 (stereo partly shown) [Example 105] :: 2
COc1ccc2nccc(C(O)CC[C@@H]3CCN(C4CC(c5nc(C6CCC6)no5)C4)C[C@@H]3C(=O)O)c2c1 (stereo partly shown) [Example 163] :: 64
COc1ccc2nccc(C(O)CC[C@@H]3CCN(C4CC(CC5CCOC5)C4)C[C@@H]3C(=O)O)c2c1 (stereo partly shown) [Example 51] :: 16
COc1ccc2ncc(Cl)c(CCNC3(C(=O)O)CCCN(C4CC(c5cccc(C(F)(F)F)c5)C4)CC3)c2c1 (stereo not shown) [Example 157] :: 1
COc1ccc2ncc(Cl)c(C(O)CCC3(C(=O)O)CCN(C4CC(c5ccccc5)C4)CC3)c2c1 (stereo not shown) [Example 141] :: 1

Form field: reported MIC of COc1ccc2nccc([C@@H](O)CC[C@@H]3CCN(C4CC(c5cccc(C#N)c5)C4)C[C@@H]3C(=O)O)c2c1 (stereo partly shown) [Example 223]
4

---

System: Staph aureus 1146
Test: MIC, microtiter broth dilution (CLSI M7-A7), Assay 1, Table 12 column B, no serum
Assay type: cell-based, Staphylococcus aureus
Settings: Staphylococcus aureus, 1146, Staph aureus 1146, Assay 1, no serum
From the text: The assays described herein include a panel of bacterial isolates of Staphylococcus aureus. […] The MIC value represents the lowest concentration of drug measured which prevented macroscopically visible growth under the conditions and specific doses tested. […]
MIC values by entry

Below are worked cases with known answers.
COc1ccc2ncc(Cl)c(CCCC3(C(=O)O)CCN(C[C@@H]4C[C@H]4c4cc(F)ccc4F)C3)c2c1 (stereo partly shown) :: < 0.0625 µg/mL
COc1ccc2ncc(F)c(CCCC3(C(=O)O)CCN(C4CC(c5ccccc5)C4)CC3)c2n1 (stereo not shown) :: ≤ 0.0625 µg/mL
CNC(=O)[C@H]1CN(C2CC(c3ccccc3)C2)CC[C@H]1CCC(O)c1ccnc2ccc(OC)cc12 (stereo partly shown) :: 1 µg/mL
COc1ccc2nccc(C(O)CC[C@@H]3CCN(C4CC(Cc5ccccc5)C4)C[C@@H]3C(=O)O)c2c1 (stereo partly shown) :: 0.25 µg/mL
COc1ccc2ncc(Cl)c(CCCC3(C(=O)O)CCN(C4CC(c5ccccc5)C4)C3)c2c1 (stereo not shown) :: ≤ 0.0625 µg/mL

Form field: reported MIC of COc1ccc2ncc(F)c(C(O)CC[C@@H]3CCN([C@H]4C[C@H](c5c(F)cccc5F)C4)C[C@@H]3C(=O)O)c2c1 (stereo partly shown)
< 0.0625 µg/mL

Form field: reported MIC of COc1ccc2nccc(C(O)CC[C@@H]3CCN(C4CC(Oc5ccccc5)C4)C[C@@H]3C(=O)O)c2c1 (stereo partly shown)
0.25 µg/mL

Form field: reported MIC of COc1ccc2ncc(Cl)c(CCNC3(C(=O)O)CCCN(C4CC(c5cccc(C)c5)C4)CC3)c2c1 (stereo not shown)
1 µg/mL

Form field: reported MIC of COc1ccc2nccc(C(O)CC[C@@H]3CCN(C4CC(c5ccc(O)cc5)C4)C[C@@H]3C(=O)O)c2c1 (stereo partly shown)
32 µg/mL

Form field: reported MIC of COc1ccc2ncc(F)c(C(O)CC[C@@H]3CCN(C4CC(c5cc(F)ccc5F)C4)C[C@@H]3C(=O)O)c2c1 (single isomer, unassigned) [Example 59]
≤ 0.0625 µg/mL
